test: solvent given as SMILES; conditions: in CCOC(C)=O
Range-based classes on measured solvation free energy, 298 K: low (below -10 kcal/mol), moderate (-10 kcal/mol to below -5 kcal/mol), high (-5 kcal/mol or more)

- compound: "O=C(c1ccccc1)C(O)c1ccccc1 (stereo unspecified)"
  label: "low"
- compound: "COc1ccc2cc(C(C)C(=O)O)ccc2c1 (stereo unspecified)"
  label: "low"
- compound: "COc1ccccc1C(=O)O"
  label: "low"
- compound: "O=C(O)c1ccc(O)cc1"
  label: "low"
- compound: "CCCCCl"
  label: "high"
- compound: "Cc1c(C(=O)O)cc([N+](=O)[O-])cc1[N+](=O)[O-]"
  label: "low"
- compound: "CCC#N"
  label: "high"
- compound: "c1ccc2c(c1)ccc1ccccc12"
  label: "low"
- compound: "C(=Cc1ccccc1)c1ccccc1"
  label: "low"
- compound: "O=Cc1ccco1"
  label: "moderate"
- compound: "CCC1CCCCC1"
  label: "high"
- compound: "CC(C)(C)Br"
  label: "high"
- compound: "Nc1ccccc1"
  label: "moderate"
- compound: "CCOc1ccc(NC(C)=O)cc1"
  label: "low"
- compound: "C=CC=C"
  label: "high"
- compound: "[HH]"
  label: "high"
- compound: "O=C(O)c1ccccc1"
  label: "moderate"
- compound: "ClC(Cl)Cl"
  label: "high"
- compound: "CC(C)O"
  label: "high"
- compound: "Cc1ccccn1"
  label: "moderate"
- compound: "CC(C)C"
  label: "high"
- compound: "C=CC(=C)C"
  label: "high"
- compound: "O=C(O)Cc1ccc(O)cc1"
  label: "low"
- compound: "FC(F)(Cl)C(F)(Cl)Cl"
  label: "high"
- compound: "CS(C)=O"
  label: "moderate"
- compound: "CCN(CC)CC"
  label: "high"

----------
assay: solvent given as SMILES; settings: in OCCCOCCCO
value kind: solvation free energy, 298 K (kcal/mol)

- substance smiles: "CCCC"
  unit of measurement: "kcal/mol"
  observed value: -1.24
- substance smiles: "CC(C)C"
  unit of measurement: "kcal/mol"
  observed value: -0.87
- substance smiles: "C=CC=C"
  unit of measurement: "kcal/mol"
  observed value: -1.73
- substance smiles: "CCC"
  unit of measurement: "kcal/mol"
  observed value: -0.57

----------
Let's look at some molecules and their measured solvation free energy, 298 K.
assay: solvent given as SMILES; settings: in CCCCOC(=O)c1ccccc1C(=O)OCCCC

- substance smiles: "CC1CCCCC1"
  solvation free energy, 298 K, kcal/mol: -4.11
- substance smiles: "CCC1CCCCC1"
  solvation free energy, 298 K, kcal/mol: -4.8
- substance smiles: "C=CCCCCCC"
  solvation free energy, 298 K, kcal/mol: -4.62
- substance smiles: "C=CCCCC"
  solvation free energy, 298 K, kcal/mol: -3.37

----------
Each record here notes measured solvation free energy, 298 K.
assay: solvent given as SMILES; settings: in CCCCCCCCO

- substance smiles: "CCCOC(C)=O"
  unit of measurement: "kcal/mol"
  solvation free energy, 298 K: -4.33
- substance smiles: "Clc1cc(Cl)cc(Cl)c1"
  unit of measurement: "kcal/mol"
  solvation free energy, 298 K: -6.62
- substance smiles: "ClC(Cl)Cl"
  unit of measurement: "kcal/mol"
  solvation free energy, 298 K: -3.8

----------
experiment: solvent given as SMILES; settings: in Cc1ccccc1C
solvation free energy, 298 K strictly under -5 kcal/mol means Yes; at -5 kcal/mol or over means No.

- compound: "CCCC"
  label: "No"
- compound: "CC(C)C"
  label: "No"
- compound: "C=CC=C"
  label: "No"
- compound: "Oc1ccccc1Br"
  label: "Yes"
- compound: "Oc1ccccc1Cl"
  label: "Yes"
- compound: "OCCCl"
  label: "No"
- compound: "CCC"
  label: "No"
- compound: "O=C(c1ccccc1)C(O)c1ccccc1 (centres undefined)"
  label: "Yes"
- compound: "CCCl"
  label: "No"
- compound: "Cc1ccccc1N"
  label: "Yes"
- compound: "C(=Cc1ccccc1)c1ccccc1"
  label: "Yes"
- compound: "CCc1ccc(O)cc1"
  label: "Yes"
- compound: "Cc1ccc(O)c(O)c1"
  label: "Yes"

----------
test: solvent given as SMILES; details: in CCCCCCCC
value kind: solvation free energy, 298 K (kcal/mol)

- substance smiles: "Nc1ccccc1"
  observed value: -4.84
- substance smiles: "CC(C)C"
  observed value: -2.3
- substance smiles: "CCCOC(C)=O"
  observed value: -4.02
- substance smiles: "CCCCCCCCCCO"
  observed value: -7.87
- substance smiles: "C(=Cc1ccccc1)c1ccccc1"
  observed value: -10.2
- substance smiles: "O=[N+]([O-])c1ccc(O)cc1"
  observed value: -7.93
- substance smiles: "CCc1ccc(O)cc1"
  observed value: -6.44
- substance smiles: "CCCCN"
  observed value: -3.44
- substance smiles: "Oc1ccccc1Br"
  observed value: -6.47
- substance smiles: "ClC(Cl)Cl"
  observed value: -3.52

----------
assay: solvent given as SMILES; settings: in O=C1CCCO1
Mark each entry MET if its solvation free energy, 298 K sits below -3 kcal/mol, and NOT MET for all others.

- substance smiles: "C=CCCCCCC"
  label: "MET"
- substance smiles: "CCC1CCCCC1"
  label: "MET"
- substance smiles: "C=CCCCC"
  label: "NOT MET"
- substance smiles: "C1COCCO1"
  label: "MET"

----------
experiment: solvent given as SMILES; conditions: in C=CCCCCCCCCCCCCCC
# solvation free energy, 298 K per entry

- substance smiles: "O"
  solvation free energy, 298 K: "-0.63 kcal/mol"
- substance smiles: "CCCCBr"
  solvation free energy, 298 K: "-4.19 kcal/mol"
- substance smiles: "CC(C)CCl"
  solvation free energy, 298 K: "-3.51 kcal/mol"
- substance smiles: "CCC(C)(C)C"
  solvation free energy, 298 K: "-3.12 kcal/mol"
- substance smiles: "O=C(O)c1ccc(CO)cc1"
  solvation free energy, 298 K: "-8.43 kcal/mol"
- substance smiles: "CC=CC=CC"
  solvation free energy, 298 K: "-3.86 kcal/mol"

----------
experiment: solvent given as SMILES; details: in CNC=O

- substance smiles: "Cc1cccc(C)c1"
  solvation free energy, 298 K: "-4.82 kcal/mol"
- substance smiles: "O=C(O)c1ccc(O)cc1"
  solvation free energy, 298 K: "-11.7 kcal/mol"
- substance smiles: "O=C(O)c1ccccc1"
  solvation free energy, 298 K: "-10 kcal/mol"
- substance smiles: "COC(C)(C)C"
  solvation free energy, 298 K: "-3.08 kcal/mol"
- substance smiles: "CCOC(C)(C)C"
  solvation free energy, 298 K: "-3.21 kcal/mol"
- substance smiles: "C=CC(=C)C"
  solvation free energy, 298 K: "-2.44 kcal/mol"
- substance smiles: "CCCC(C)=O"
  solvation free energy, 298 K: "-4.69 kcal/mol"
- substance smiles: "C1COCCO1"
  solvation free energy, 298 K: "-4.87 kcal/mol"
- substance smiles: "CC1CCCCC1"
  solvation free energy, 298 K: "-3.18 kcal/mol"
- substance smiles: "O"
  solvation free energy, 298 K: "-5.28 kcal/mol"
- substance smiles: "CCC1CCCCC1"
  solvation free energy, 298 K: "-3.73 kcal/mol"
- substance smiles: "C=CCCCC"
  solvation free energy, 298 K: "-2.55 kcal/mol"
- substance smiles: "CC1CCCC1"
  solvation free energy, 298 K: "-2.67 kcal/mol"
- substance smiles: "C=CCCCCCC"
  solvation free energy, 298 K: "-3.6 kcal/mol"

----------
test: solvent given as SMILES; settings: in C1CCCCC1
Criterion: solvation free energy, 298 K strictly under -6 kcal/mol. Met: label 1. Not met: label 0.

- substance smiles: "C1COCCO1"
  label: "label 0"
- substance smiles: "O=[N+]([O-])c1cccc(Cl)c1Cl"
  label: "label 1"
- substance smiles: "CCC1CCCCC1"
  label: "label 0"
- substance smiles: "CCOC(C)(C)C"
  label: "label 0"
- substance smiles: "O"
  label: "label 0"

----------
test: solvent given as SMILES; conditions: in CC(C)=O
Entry flag: T if solvation free energy, 298 K reaches -4 kcal/mol; F if it does not.

- substance smiles: "[HH]"
  label: "T"
- substance smiles: "C1COCCO1"
  label: "F"
- substance smiles: "FC(F)(Cl)C(F)(Cl)Cl"
  label: "T"
- substance smiles: "O"
  label: "F"
- substance smiles: "CCC"
  label: "T"
- substance smiles: "c1ccc2c(c1)ccc1ccccc12"
  label: "F"
- substance smiles: "O=C(O)c1ccccc1"
  label: "F"
- substance smiles: "CCCCCl"
  label: "F"
- substance smiles: "N"
  label: "T"
- substance smiles: "CCCC"
  label: "T"
- substance smiles: "ClC(Cl)Cl"
  label: "F"
- substance smiles: "C=CC=C"
  label: "T"
- substance smiles: "ClC(Cl)C(Cl)Cl"
  label: "F"
- substance smiles: "C#CC=C"
  label: "T"
- substance smiles: "CC(C)(C)Br"
  label: "T"
- substance smiles: "O=C(O)c1ccccc1Cl"
  label: "F"
- substance smiles: "OC1CCCCC1"
  label: "F"
- substance smiles: "ClCCCCCl"
  label: "F"
- substance smiles: "CCC1CCCCC1"
  label: "F"
- substance smiles: "CC(C)C"
  label: "T"
- substance smiles: "O=C(O)C=CC(=O)O"
  label: "F"
- substance smiles: "O=C(O)c1ccccc1O"
  label: "F"
- substance smiles: "O=C(O)c1ccc(O)cc1"
  label: "F"
- substance smiles: "Nc1ccccc1"
  label: "F"
